Tested on: SF-268 CNS
Test: NCI tumour cell line growth inhibition, 48 h
Parameter TGI: see the listing below.

Example cases with answers are listed next.
compound=Cc1nc2c(O)c3c(c(O)c2nc1C)C1C=CC3CC1 test_system="SF-268 CNS" observable=TGI result="32.9 µM"
compound=O=C1c2ccn(CCCNC(CO)(CO)CO)c2C(=O)c2c1c(O)c1ccccc1c2O test_system="SF-268 CNS" observable=TGI result="> 100 µM"
compound="CNCC(=O)NC(CO)C(=O)NC(CO)C(=O)NC1C(C(N)=O)OC(n2ccc(N)nc2=O)C(O)C1O (stereo not drawn)" test_system="SF-268 CNS" observable=TGI result="15.6 µg/mL"
compound="CC(C)[C@@H]1CC[C@@H](C)C[C@H]1OC(=O)/C=C1\\C(C(=O)O[C@@H]2C[C@H](C)CC[C@H]2C(C)C)[C@H]2C=C[C@@H]1O2 (stereo partly drawn)" test_system="SF-268 CNS" observable=TGI result="> 100 µM"
compound="CC(=O)N1C(CCc2ccccc2)CC(C)(C=O)C1Cc1ccc(O[Si](C(C)C)(C(C)C)C(C)C)cc1 (stereo not drawn)" test_system="SF-268 CNS" observable=TGI result="15.8 µM"

Prompt: What value of TGI has been recorded for this entry: O=C1C(Cl)=C(Cl)C(=O)N1c1ccc(F)cc1
Response: > 77.3 µM

Prompt: Now try C[C@H](c1ccccc1)n1c(N)c(-c2nc3ccccc3s2)c2ccc([N+](=O)[O-])cc2c1=O .
Response: > 100 µM

Prompt: Now try CN(C)CC1C(=O)O[C@H]2[C@H]1CC/C(COC(=O)NCc1ccc(Cn3c(=O)sn(CCCI)c3=O)cc1)=C\CC[C@@]1(C)O[C@@H]21 (stereo partly drawn) .
Response: 11.4 µM
